- Tested on: SK-MEL-28
- test: NCI tumour cell line growth inhibition, 48 h
Calls of active or inactive are those of the source. Rule as the data show it: active = GI50 up to about 1.1 µM and inactive = higher.
measured property: GI50

Recorded GI50 (molecule Cc1cccc(C(C)(C)C)c1NC(=O)CC1C(=O)Nc2ccccc2S1(=O)=O (centres undefined) ): 14.1 µM (inactive)

The reported GI50 of the molecule COC(=O)/C=C(\CC(=O)OC)n1nnnc1[C@@H]1C[C@H](COC(c2ccccc2)(c2ccccc2)c2ccccc2)[C@H]2OC(C)(C)O[C@H]21 was > 100 µM (inactive)

So for COc1ccc(-n2c(=O)n(C)c(=O)n2-c2ccc(OC)cc2)cc1 , the logged GI50 turned out to be > 100 µM (inactive)

Reported GI50 ( COc1ccc(-c2c(C(C)=O)c(-c3ccccc3)n(C3OC(COC(C)=O)C(OC(C)=O)C(OC(C)=O)C3OC(C)=O)c(=S)c2C#N)cc1 (centres undefined) ) = > 100 µM (inactive)

----------
- System: DMS-114
- test: NCI tumour cell line growth inhibition, 48 h
Activity calls are given as the source filed them. Cut-off read from the data, not from the text of the source: active = GI50 up to about 1.1 µM and inactive = higher.
Outcomes you can answer with include only these: active, inactive

**Query** What did the test return for CC(=O)OC(C)(C)/C=C/C(=O)[C@](C)(O)[C@H]1[C@H](O)C[C@@]2(C)[C@@H]3CC=C4[C@@H](C[C@H](O)[C@H](O)C4(C)C)[C@]3(C)C(=O)C[C@]12C ?
**Result** active

**Query** Per the records of this test, what outcome belongs to COc1cc([C@@H]2c3cc4c(cc3[C@@H](OC3OC5COC(C)OC5C(O)C3O)[C@H]3COC(=O)[C@H]23)OCO4)cc(OC)c1O (stereo partly drawn) ?
**Result** inactive

**Query** Name the outcome recorded for CCC(C)C1NC(=O)CNC(=O)C2Cc3c([nH]c4cc(O)ccc34)[S+]([O-])CC(NC(=O)CNC1=O)C(=O)NC(CC(=O)O)C(=O)N1CC(O)CC1C(=O)NC(C(C)C(O)CO)C(=O)N2 (stereo not drawn) in the assay.
**Result** active

----------
- System: BT-549
- test: NCI tumour cell line growth inhibition, 48 h
Activity calls are given as the source filed them. Cut-off read from the data, not from the text of the source: active = GI50 up to about 1.1 µM and inactive = higher.
Entries and their GI50

# molecule, GI50
measured = [
    ("CCOP(=O)(OCC)/C(C#N)=C/c1cccn1N(C)C", "62.2 µM (inactive)"),
]

Lookup result for CN1CCN(C2=CC(=O)c3c(O)ccc(O)c3C2=O)CC1 ; measured GI50: 1.76 µM (inactive)

GI50 recorded for this molecule, CCOC(=O)c1c(NC(=O)c2ccc(OC)cc2)sc2c1CCCC2 , is > 100 µM (inactive)

Data point: CC(C)C1OC23CCCCC2C(C#N)(C#N)C1(C#N)C(=N)O3 (stereo unspecified) ; GI50 = 18.8 µM (inactive)

----------
- Test system: COLO 205
- test: NCI tumour cell line growth inhibition, 48 h
Calls of active or inactive are those of the source. No stated cut-off is given here; in the data, active = GI50 up to about 1.1 µM and inactive = higher.
measured property: GI50

# compound, GI50
data = [
    ("CCCCCCc1cc2cc(C(=O)Nc3ccccc3F)c(=N)oc2cc1O", "19.3 µM (inactive)"),
]

Proceed to the following item.
GI50 reading for N#Cc1cccc(C2SCc3nc4ccccc4n32)c1 (stereo not drawn) : > 100 µM (inactive)

----------
- Tested on: SN12C
- test: NCI tumour cell line growth inhibition, 48 h
Active and inactive are the calls of the source. Cut-off read from the data, not from the text of the source: active = GI50 up to about 1.1 µM and inactive = higher.
List of GI50 values.

# GI50 (compound: O=C(CCN1CCCC1)c1ccc(Oc2ccc(F)cc2)cc1 ) is 97.1 µM (inactive)

Looking up Nc1ccc(C(c2ccccc2)(c2ccccc2)c2ccccc2)cc1 , I found its GI50 recorded as 66.5 µM (inactive)

Measured GI50, COc1ccc(C2SCC(=O)N2NC(=O)C(C)Oc2ccc(Cl)cc2Cl)cc1 (stereo not drawn) : 41.7 µM (inactive)

Lab note: measured GI50 of NS(=O)(=O)c1cc(S(N)(=O)=O)c(NC(=O)N(c2ccccc2)c2ccccc2)c(Cl)c1Cl was 19.5 µM (inactive)

Form field GI50, entry CCCCCCCCCCCCCCCC(=O)OCC(C[As](=O)(O)O)OC(=O)CCCCCCCCCCCCCCC (stereo not drawn) : > 74.5 µM (inactive)

So for CCCCCCCCCCCCCCCCNc1ccn(C2CC(O)C(COC(c3ccccc3)(c3ccccc3)c3ccc(OC)cc3)O2)c(=O)n1 (stereo not drawn) , the logged GI50 turned out to be > 100 µM (inactive)

Reported GI50 of Cc1c2c(C(N)=O)nccc2c(C)c2c1c1ccccc1n2Cc1ccccc1 : 17.7 µM (inactive)

Record summary for Cc1ccc(S(=O)(=O)NC(=O)NCC(=O)O)cc1 : reported GI50 = > 100 µM (inactive)

----------
- System: RXF 393
- test: NCI tumour cell line growth inhibition, 48 h
The source made the active and inactive calls. Rule as the data show it: active = GI50 up to about 1.1 µM and inactive = higher.
measured property: GI50

# molecule, measured property, assay result
data = [
    ("Nc1ccc(S(=O)(=O)Nc2nc3ccccc3nc2N2CCCCC2)cc1", "GI50", "55.2 µM (inactive)"),
]

What the record says about CSc1c(C)[n+]([O-])c2cc(Cl)c(Cl)cc2[n+]1[O-] : GI50 is 21.5 µM (inactive)

Data point: OCC#CCNCl ; GI50 = > 100 µM (inactive)

Field GI50 (entry COc1ccc(/C=C(\C#N)c2ccccn2)cc1OC ) reads 23.7 µM (inactive)

The molecule listed as COc1cc(N(Cc2ccc3oc(=O)c(-c4ccccc4)nc3c2)Cc2ccc3oc(=O)c(-c4ccccc4)nc3c2)cc(OC)c1OC shows GI50 equal to > 10 µM (inactive)

Per the record, Cc1nc2cccc(F)c2c(=O)n1-c1nnc(C(F)(F)F)s1 has GI50 of > 10 µM (inactive)

The value of GI50 measured for the molecule NNC(=O)CNC(=O)CSc1nnc(COc2ccc(Cl)cc2)n1-c1ccccc1 turned out to be > 100 µM (inactive)

The recorded GI50 for COC(=O)C(Cc1ccccc1)NC(=O)C(CCCNC(=N)N)NC(=O)OCc1ccccc1 (stereo not drawn) is > 100 µM (inactive)

Please fill in: GI50 reported for O=C(O)c1c(Cl)c(Cl)c(Cl)c(Cl)c1C(=O)Nc1ccc2cn[nH]c2c1 = > 100 µM (inactive)

The measured GI50 associated with O=c1[nH]c2nc[nH]c2c(=O)n1C1CCCCC1 reads > 100 µM (inactive)

Form field GI50, entry O=C(O)CNc1ccc(Cl)c(Cl)c1 : 35.3 µM (inactive)

Noted for COc1ccc(/N=N/C(=N\c2ccccc2)c2ccc(N(CCC#N)CCC#N)cc2)cc1 : its GI50 reads 19.9 µM (inactive)

Sample O=C(c1cccs1)N1CCc2ccccc2C1 ; GI50 observed: > 100 µM (inactive)

----------
- Tested on: HOP-62
- test: NCI tumour cell line growth inhibition, 48 h
Active and inactive are the calls of the source. Cut-off read from the data, not from the text of the source: active = GI50 up to about 1.1 µM and inactive = higher.
Respond with a class label; see active, inactive

Worked cases, answers included:
# compound, target or system, answer label
measured = [
    ("CCOC(=O)NC(OCCN(C)C)(C(F)(F)F)C(F)(F)F", "HOP-62", "inactive"),
    ("O=C1CCCC1CC(CN1CCOCC1)Sc1nnnn1-c1ccccc1 (centres undefined)", "HOP-62", "inactive"),
    ("CC(=O)N1c2ccccc2C(C)(C)OC1C(Cl)(Cl)Cl (centres undefined)", "HOP-62", "inactive"),
    ("CCOC(=O)c1nn2c(nc1=O)sc1ccc3ccccc3c12", "HOP-62", "inactive"),
    ("CC(=O)Oc1cc(OC(C)=O)c2c(c1C)CC[C@@H]1[C@@H]2CC[C@]2(C)[C@@H](OC(C)=O)CC[C@@H]12", "HOP-62", "inactive"),
    ("O=C(c1cccs1)N1CCc2ccccc2C1", "HOP-62", "inactive"),
    ("O=C(NCc1ccccc1)C1C(=O)C(=O)N(Cc2ccccc2)C1=O (centres undefined)", "HOP-62", "inactive"),
    ("COc1ccc(CC(N)=O)cc1OC", "HOP-62", "inactive"),
]

**Query** Test call for this compound, please: Cc1nc(N)nc(N)c1-c1ccc(Cl)c(Cl)c1
**Result** inactive

**Query** Returns: the outcome recorded for COC1(OC)CC(CO)(CNc2nc(N)nc(Cl)c2C=O)C1 in this assay.
**Result** inactive

**Query** Could you please tell me the result logged for CC(=O)Oc1ccc2c(c1)c1c(=O)oc(N(C)C)nc1n2Cc1ccccc1 in this assay?
**Result** inactive

**Query** Returns: the outcome recorded for CC(C)(C)OC(=O)C1C(=O)NC(=O)CC1C(COCc1ccccc1)OCc1ccccc1 (centres undefined) in this assay.
**Result** inactive

**Query** Kindly provide the recorded test outcome for the following compound: [O-][S+]1C(=c2ccc(=C3Sc4ccccc4S3)cc2)Sc2ccccc21 (centres undefined)
**Result** inactive

----------
- System: CAKI-1
- test: NCI tumour cell line growth inhibition, 48 h
The source made the active and inactive calls. No stated cut-off is given here; in the data, active = GI50 up to about 1.1 µM and inactive = higher.
Respond using exactly one of the listed classes: active, inactive

Study these solved cases before continuing.
# molecule, answer label
records = [
    ("O=C(NCc1ccccc1)c1cc2ccc(O)c(O)c2cn1", "inactive"),
    ("CN(C)C(=S)/N=c1\\sn(C)/c(=N\\C(=S)N(C)C)n1C", "inactive"),
    ("CC(=O)Oc1cc(OC(C)=O)c2c(c1C)CC[C@@H]1[C@@H]2CC[C@]2(C)[C@@H](OC(C)=O)CC[C@@H]12", "inactive"),
    ("O=C(c1cccs1)N1CCc2ccccc2C1", "inactive"),
    ("Cc1cc(C)c2c(=N)c3ccccc3n(CCCCCCn3c4ccccc4c(=N)c4c(C)cc(C)nc43)c2n1", "inactive"),
]

We next turn to a different molecule, shown below.
**Query** What is the recorded call for this molecule in the test? COC(=O)C(Cc1ccccc1)NC(=O)C(CCCNC(=N)N)NC(=O)OCc1ccccc1 (stereo unspecified)
**Result** inactive
